Values compiled from patent US20250011363A1.

target_or_system: acetylcholine receptor
procedure_text: SPR, AchR immobilized on chip
measurement_label: Binding affinity (relative to RRQRR) (relative value to the RRQRR sequence)
Returns: the value as a bare number; no unit string appended.

* YRRQRR | 130
* VRRQRR | 135
* RRQRRC | 126
* RRQRRF | 132
* HRRQRR | 164

Prompt line: Would you mind telling me what Binding affinity (relative to RRQRR) (relative value to the RRQRR sequence) value was observed for CRRQRR ?
Response line: 123
